# System: CEM-VLB
# METHOD: Cytotoxicity against human CCRF-CEM/VLB cells assessed as inhibition of cell proliferation incubated for 4 hrs by MTS assay
# Assay type: functional, cell-based
Where a SMILES comes first, the peptide text is derived from it. [ ]: non-standard residue; d: D form. ξ: configuration not given here. Bip = N[C@@H](Cc1ccc(-c2ccccc2)cc1)C(=O)O; ξBip = NC(Cc1ccc(-c2ccccc2)cc1)C(=O)O; ξDip = NC(C(=O)O)C(c1ccccc1)c1ccccc1
REPORTED METRIC: IC50 (µM)
Your answer should be a plain number; it is taken to be in µM.

Lookup: // fetch CEM-VLB IC50 for NCCCC[C@H](NC(=O)[C@H](Cc1c[nH]c2ccccc12)NC(=O)[C@H](CCCCN)NC(=O)[C@H](CCCCN)NC(=O)C(NC(=O)[C@H](Cc1c[nH]c2ccccc12)NC(=O)[C@H](CCCCN)NC(=O)[C@H](CCCCN)NC(=O)[C@@H](N)Cc1c[nH]c2ccccc12)C(c1ccccc1)c1ccccc1)C(N)=O (stereo not given in full) (H-WKKW[ξDip]KKWK-NH2)
Found: 5.3

Lookup: Now consider NCCCC[C@H](NC(=O)[C@H](Cc1c[nH]c2ccccc12)NC(=O)[C@H](Cc1c[nH]c2ccccc12)NC(=O)[C@H](CCCCN)NC(=O)[C@H](CCCCN)NC(=O)[C@H](Cc1c[nH]c2ccccc12)NC(=O)C(Cc1ccc(-c2ccccc2)cc1)NC(=O)[C@H](CCCCN)NC(=O)[C@@H](N)CCCCN)C(N)=O (stereo not given in full) (H-KK[ξBip]WKKWWK-NH2) .
Found: 5.7

Lookup: Can you handle NCCCC[C@H](NC(=O)[C@H](Cc1c[nH]c2ccccc12)NC(=O)[C@H](Cc1c[nH]c2ccccc12)NC(=O)[C@H](CCCCN)NC(=O)[C@H](CCCCN)NC(=O)[C@H](Cc1c[nH]c2ccccc12)NC(=O)[C@H](Cc1ccc(-c2ccccc2)cc1)NC(=O)[C@H](CCCCN)NC(=O)[C@@H](N)CCCCN)C(N)=O (H-KK[Bip]WKKWWK-NH2) next?
Found: 4

Lookup: Next molecule up: N=C(N)NCCC[C@H](NC(=O)[C@H](Cc1c[nH]c2ccccc12)NC(=O)[C@H](Cc1c[nH]c2ccccc12)NC(=O)[C@H](CCCNC(=N)N)NC(=O)[C@H](CCCNC(=N)N)NC(=O)C(NC(=O)[C@H](Cc1c[nH]c2ccccc12)NC(=O)[C@H](CCCNC(=N)N)NC(=O)[C@@H](N)CCCNC(=N)N)C(c1ccccc1)c1ccccc1)C(N)=O (stereo not given in full) (H-RRW[ξDip]RRWWR-NH2)
Found: 3.6

Lookup: Please give the result for NCCCC[C@H](NC(=O)C(NC(=O)[C@H](Cc1c[nH]c2ccccc12)NC(=O)[C@H](CCCCN)NC(=O)[C@H](CCCCN)NC(=O)[C@H](Cc1c[nH]c2ccccc12)NC(=O)[C@H](Cc1c[nH]c2ccccc12)NC(=O)[C@H](CCCCN)NC(=O)[C@@H](N)CCCCN)C(c1ccccc1)c1ccccc1)C(N)=O (stereo not given in full) (H-KKWWKKW[ξDip]K-NH2) too.
Found: 2.4

----------
What IC50 was measured for each of the following?
# System: SK-OV-3
# METHOD: Cytotoxicity against human SK-OV-3 cells assessed as inhibition of cell proliferation incubated for 4 hrs by MTS assay
# Assay type: functional, cell-based
# COND: SK-OV-3, 4 h
Where a SMILES comes first, the peptide text is derived from it. [ ]: non-standard residue; d: D form. ξ: configuration not given here. ξDip = NC(C(=O)O)C(c1ccccc1)c1ccccc1
# output: numeric value plus its unit

Lookup: Endpoint output: IC50 of N=C(N)NCCC[C@H](NC(=O)[C@H](Cc1c[nH]c2ccccc12)NC(=O)[C@H](Cc1c[nH]c2ccccc12)NC(=O)[C@H](CCCNC(=N)N)NC(=O)[C@H](CCCNC(=N)N)NC(=O)C(NC(=O)[C@H](Cc1c[nH]c2ccccc12)NC(=O)[C@H](CCCNC(=N)N)NC(=O)[C@@H](N)CCCNC(=N)N)C(c1ccccc1)c1ccccc1)C(N)=O (some centres not stated) (H-RRW[ξDip]RRWWR-NH2) . Value?
Found: 7.4 µM

Lookup: Moving on to the next compound: NCCCC[C@H](NC(=O)[C@H](Cc1c[nH]c2ccccc12)NC(=O)[C@H](CCCCN)NC(=O)[C@H](CCCCN)NC(=O)C(NC(=O)[C@H](Cc1c[nH]c2ccccc12)NC(=O)[C@H](CCCCN)NC(=O)[C@H](CCCCN)NC(=O)[C@@H](N)Cc1c[nH]c2ccccc12)C(c1ccccc1)c1ccccc1)C(N)=O (some centres not stated) (H-WKKW[ξDip]KKWK-NH2)
Found: 18.1 µM

----------
Assignment: determine reported pIC50 for the given compounds.
# Test system: HCT-116
# METHOD: Cytotoxicity against human HCT-116 cells assessed as inhibition of cell proliferation incubated for 4 hrs by MTS assay
# Format: functional, cell-based
# COND: HCT-116, 4 h
Where a SMILES comes first, the peptide text is derived from it. [ ]: non-standard residue; d: D form. ξ: configuration not given here. Bip = N[C@@H](Cc1ccc(-c2ccccc2)cc1)C(=O)O; ξBip = NC(Cc1ccc(-c2ccccc2)cc1)C(=O)O; ξDip = NC(C(=O)O)C(c1ccccc1)c1ccccc1
Please report pIC50 as the negative decimal logarithm of the molar concentration, giving only the number.

Lookup: What value of pIC50 has been recorded for this entry: NCCCC[C@H](NC(=O)[C@H](Cc1c[nH]c2ccccc12)NC(=O)[C@H](CCCCN)NC(=O)[C@H](CCCCN)NC(=O)C(NC(=O)[C@H](Cc1c[nH]c2ccccc12)NC(=O)[C@H](CCCCN)NC(=O)[C@H](CCCCN)NC(=O)[C@@H](N)Cc1c[nH]c2ccccc12)C(c1ccccc1)c1ccccc1)C(N)=O (stereo not given in full) (H-WKKW[ξDip]KKWK-NH2)
Found: 4.99

Lookup: For NCCCC[C@H](NC(=O)[C@H](Cc1c[nH]c2ccccc12)NC(=O)[C@H](Cc1c[nH]c2ccccc12)NC(=O)[C@H](CCCCN)NC(=O)[C@H](CCCCN)NC(=O)[C@H](Cc1c[nH]c2ccccc12)NC(=O)C(Cc1ccc(-c2ccccc2)cc1)NC(=O)[C@H](CCCCN)NC(=O)[C@@H](N)CCCCN)C(N)=O (stereo not given in full) (H-KK[ξBip]WKKWWK-NH2) then?
Found: 5.12

Lookup: Ok, now NCCCC[C@H](NC(=O)C(NC(=O)[C@H](Cc1c[nH]c2ccccc12)NC(=O)[C@H](CCCCN)NC(=O)[C@H](CCCCN)NC(=O)[C@H](Cc1c[nH]c2ccccc12)NC(=O)[C@H](Cc1c[nH]c2ccccc12)NC(=O)[C@H](CCCCN)NC(=O)[C@@H](N)CCCCN)C(c1ccccc1)c1ccccc1)C(N)=O (stereo not given in full) (H-KKWWKKW[ξDip]K-NH2)
Found: 5.47

Lookup: Queued: N=C(N)NCCC[C@H](NC(=O)[C@H](Cc1c[nH]c2ccccc12)NC(=O)[C@H](Cc1c[nH]c2ccccc12)NC(=O)[C@H](CCCNC(=N)N)NC(=O)[C@H](CCCNC(=N)N)NC(=O)C(NC(=O)[C@H](Cc1c[nH]c2ccccc12)NC(=O)[C@H](CCCNC(=N)N)NC(=O)[C@@H](N)CCCNC(=N)N)C(c1ccccc1)c1ccccc1)C(N)=O (stereo not given in full) (H-RRW[ξDip]RRWWR-NH2)
Found: 5.32

Lookup: Consider next the compound NCCCC[C@H](NC(=O)[C@H](Cc1c[nH]c2ccccc12)NC(=O)[C@H](Cc1c[nH]c2ccccc12)NC(=O)[C@H](CCCCN)NC(=O)[C@H](CCCCN)NC(=O)[C@H](Cc1c[nH]c2ccccc12)NC(=O)[C@H](Cc1ccc(-c2ccccc2)cc1)NC(=O)[C@H](CCCCN)NC(=O)[C@@H](N)CCCCN)C(N)=O (H-KK[Bip]WKKWWK-NH2) in the same way.
Found: 5.07

----------
Exercise: for every item that follows, state its recorded pIC50.
# System: A20
# METHOD: Cytotoxicity against mouse A20 lymphoma cells assessed as inhibition of cell proliferation incubated for 4 hrs by MTT assay
# Format: functional, cell-based
# COND: A20, 4 h
Where a SMILES comes first, the peptide text is derived from it. [ ]: non-standard residue; d: D form. ξ: configuration not given here. Bip = N[C@@H](Cc1ccc(-c2ccccc2)cc1)C(=O)O; ξBip = NC(Cc1ccc(-c2ccccc2)cc1)C(=O)O; ξDip = NC(C(=O)O)C(c1ccccc1)c1ccccc1; ξ2Nal = NC(Cc1ccc2ccccc2c1)C(=O)O; ξDap = NCC(N)C(=O)O
Remember the convention: pIC50 equals -log10 of concentration in molar.

Lookup: Suppose we examine the compound NCCCC[C@H](NC(=O)[C@H](Cc1c[nH]c2ccccc12)NC(=O)[C@H](Cc1c[nH]c2ccccc12)NC(=O)[C@H](CCCCN)NC(=O)[C@H](CCCCN)NC(=O)C(Cc1ccc2ccccc2c1)NC(=O)[C@H](Cc1c[nH]c2ccccc12)NC(=O)[C@H](CCCCN)NC(=O)[C@@H](N)CCCCN)C(N)=O (some centres not stated) (H-KKW[ξ2Nal]KKWWK-NH2) ; what pIC50 value has been reported?
Found: 4.59

Lookup: And the next one, NCCCC[C@H](NC(=O)C(NC(=O)[C@H](Cc1c[nH]c2ccccc12)NC(=O)[C@H](CCCCN)NC(=O)[C@H](CCCCN)NC(=O)[C@@H](N)Cc1c[nH]c2ccccc12)C(c1ccccc1)c1ccccc1)C(N)=O (some centres not stated) (H-WKKW[ξDip]K-NH2) ?
Found: 3.61

Lookup: Same thing, different compound: NCC(N)C(=O)NC(CN)C(=O)N[C@@H](Cc1c[nH]c2ccccc12)C(=O)NC(C(=O)NC(CN)C(=O)NC(CN)C(=O)N[C@@H](Cc1c[nH]c2ccccc12)C(=O)N[C@@H](Cc1c[nH]c2ccccc12)C(=O)NC(CN)C(N)=O)C(c1ccccc1)c1ccccc1 (some centres not stated) (H-[ξDap][ξDap]W[ξDip][ξDap][ξDap]WW[ξDap]-NH2)
Found: 4.17

Lookup: And what about the compound NCCCC[C@H](NC(=O)C(NC(=O)[C@H](Cc1c[nH]c2ccccc12)NC(=O)[C@H](CCCCN)NC(=O)[C@H](CCCCN)NC(=O)[C@H](Cc1c[nH]c2ccccc12)NC(=O)[C@@H](N)Cc1c[nH]c2ccccc12)C(c1ccccc1)c1ccccc1)C(N)=O (some centres not stated) (H-WWKKW[ξDip]K-NH2) ?
Found: 4.69

Lookup: Now give it for NCCCC[C@H](NC(=O)[C@H](Cc1c[nH]c2ccccc12)NC(=O)[C@H](Cc1c[nH]c2ccccc12)NC(=O)[C@H](CCCCN)NC(=O)[C@H](CCCCN)NC(=O)[C@H](Cc1c[nH]c2ccccc12)NC(=O)[C@H](Cc1ccc(-c2ccccc2)cc1)NC(=O)[C@H](CCCCN)NC(=O)[C@@H](N)CCCCN)C(N)=O (H-KK[Bip]WKKWWK-NH2) too.
Found: 5.08

Lookup: Same thing, different compound: NCCCC[C@H](NC(=O)C(NC(=O)[C@H](Cc1c[nH]c2ccccc12)NC(=O)[C@H](CCCCN)NC(=O)[C@H](CCCCN)NC(=O)C(NC(=O)[C@H](Cc1c[nH]c2ccccc12)NC(=O)[C@H](CCCCN)NC(=O)[C@@H](N)CCCCN)C(c1ccccc1)c1ccccc1)C(c1ccccc1)c1ccccc1)C(N)=O (some centres not stated) (H-KKW[ξDip]KKW[ξDip]K-NH2)
Found: 4.92

Lookup: Next compound up: NCCCC[C@H](NC(=O)[C@H](Cc1c[nH]c2ccccc12)NC(=O)[C@H](Cc1c[nH]c2ccccc12)NC(=O)[C@H](CCCCN)NC(=O)[C@H](CCCCN)NC(=O)C(Cc1ccc(-c2ccccc2)cc1)NC(=O)[C@H](Cc1c[nH]c2ccccc12)NC(=O)[C@H](CCCCN)NC(=O)[C@@H](N)CCCCN)C(N)=O (some centres not stated) (H-KKW[ξBip]KKWWK-NH2)
Found: 4.73
